Target: Sigma non-opioid intracellular receptor 1 (Cavia porcellus, UniProt Q60492)
Sequence (Q60492 whole entry): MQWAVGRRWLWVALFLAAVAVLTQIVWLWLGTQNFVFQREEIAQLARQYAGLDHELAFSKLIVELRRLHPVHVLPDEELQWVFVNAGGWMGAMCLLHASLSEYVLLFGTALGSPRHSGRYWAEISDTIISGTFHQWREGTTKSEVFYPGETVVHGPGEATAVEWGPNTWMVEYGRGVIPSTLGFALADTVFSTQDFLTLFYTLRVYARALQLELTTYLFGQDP
Experiment: Displacement of [3H]-(+)-pentazocine from sigma1 receptor in guinea pig brain membrane after 150 mins by scintillation counting analysis
pKi: −log10 of the molar value.
Measurement type: pKi

Smiles notation: COc1ccc(CCN2CCN(CCCc3ccccc3)CC2)cc1
Experimental result: 8.89
//
Smiles notation: C=CCOc1ccc(CCN2CCN(CCCc3ccccc3)CC2)cc1OC
Experimental result: 7.52
//
Smiles notation: COc1cc(CCN2CCN(CCCc3ccccc3)CC2)ccc1OC/C=C/I
Experimental result: 7.77

1. c1ccc(CCCN2CCN(CCc3ccc4c(c3)OCO4)CC2)cc1
2. c1ccc(CCCN2CCN(CCc3ccc4c(c3)OCCCO4)CC2)cc1
Q) Between 1 and 2 , which one has the lower reported pKi value? Respond using the label that marks the chosen record.
A) 2
(2: 7.72, 1: 8.59)

A. c1ccc(CCCN2CCN(CCc3ccc4c(c3)OCCO4)CC2)cc1
B. COc1cccc(CCN2CCN(CCCc3ccccc3)CC2)c1
Q) Between A and B , which one has the lower reported pKi value? Respond using the label that marks the chosen record.
A) A
(A: 7.99, B: 8.85)

A. COc1cc(CCN2CCN(CCCc3ccccc3)CC2)ccc1OC/C=C\I
B. COc1cc(CCN2CCN(CCCc3ccccc3)CC2)ccc1O
C. COc1cc(CCN2CCN(CCCc3ccccc3)CC2)ccc1OCF
D. CCCOc1ccc(CCN2CCN(CCCc3ccccc3)CC2)cc1OC
Q) List from greatest to least pKi. Please express your ranking as an ordered list of the labels.
A) B, C, A, D

---

Biological target: UniProtKB Q60857
Sequence (Q60857 whole entry): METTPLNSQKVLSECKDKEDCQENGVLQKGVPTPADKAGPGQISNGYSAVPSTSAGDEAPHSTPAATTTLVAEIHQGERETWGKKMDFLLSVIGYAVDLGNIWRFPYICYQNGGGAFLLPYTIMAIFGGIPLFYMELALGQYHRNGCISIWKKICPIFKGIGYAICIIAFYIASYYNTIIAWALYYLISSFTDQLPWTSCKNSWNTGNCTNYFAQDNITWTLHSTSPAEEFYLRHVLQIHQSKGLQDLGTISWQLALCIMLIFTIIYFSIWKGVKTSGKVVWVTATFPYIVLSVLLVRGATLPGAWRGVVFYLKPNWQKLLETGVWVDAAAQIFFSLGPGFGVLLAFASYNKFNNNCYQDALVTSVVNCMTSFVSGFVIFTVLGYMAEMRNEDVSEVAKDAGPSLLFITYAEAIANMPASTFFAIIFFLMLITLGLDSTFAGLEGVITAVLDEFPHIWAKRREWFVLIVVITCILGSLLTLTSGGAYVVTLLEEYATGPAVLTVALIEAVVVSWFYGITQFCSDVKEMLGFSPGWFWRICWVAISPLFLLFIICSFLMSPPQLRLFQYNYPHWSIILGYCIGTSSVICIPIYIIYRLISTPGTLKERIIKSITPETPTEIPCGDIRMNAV
Test: Displacement of [3H]paroxetine from mouse SERT in whole brain membrane
Assay type: cell membranes
Measurement type: Ki (nM)

Use the examples below as a reference point.
Compound: COc1cccc(CCN2CCN(CCCc3ccccc3)CC2)c1
Assay target: UniProtKB Q60857
Units symbol: nM
Ki: 985
--
Compound: COc1ccc(CCN2CCN(CCCc3ccccc3)CC2)cc1
Assay target: UniProtKB Q60857
Units symbol: nM
Ki: 1730
--
Compound: COc1cc(CCN2CCN(CCCc3ccccc3)CC2)ccc1OC/C=C/I
Assay target: UniProtKB Q60857
Units symbol: nM
Ki: 174
--
Compound: Clc1ccc(CCN2CCN(CCCc3ccccc3)CC2)cc1Cl
Assay target: UniProtKB Q60857
Units symbol: nM
Ki: 2860
--
Compound: C=CCOc1ccc(CCN2CCN(CCCc3ccccc3)CC2)cc1OC
Assay target: UniProtKB Q60857
Units symbol: nM
Ki: 295
--
Compound: COc1cc(CCN2CCN(CCCc3ccccc3)CC2)ccc1OCc1ccccc1
Assay target: UniProtKB Q60857
Units symbol: nM
Ki: 128

I. c1ccc(CCCN2CCN(CCc3ccc4c(c3)OCO4)CC2)cc1
II. CCCOc1ccc(CCN2CCN(CCCc3ccccc3)CC2)cc1OC
Q) # argmax over Ki for candidates I and II Respond using the label that marks the chosen record.
A) I
(I: 468 nM, II: 124 nM)

---

Organism: Cavia porcellus
Assay: Selectivity ratio of Ki for guinea pig brain sigma2 receptor to Ki for guinea pig brain sigma1 receptor
Measurement type: Ratio Ki

Use the examples below as a reference point.
Smiles notation: COc1cc(CCN2CCN(CCCc3ccccc3)CC2)ccc1OCF
Measurement type: Ratio Ki
Experimental result: 39

Smiles notation: C=CCOc1ccc(CCN2CCN(CCCc3ccccc3)CC2)cc1OC
Measurement type: Ratio Ki
Experimental result: 1.4

Smiles notation: c1ccc(CCCN2CCN(CCc3ccc4c(c3)OCCCO4)CC2)cc1
Measurement type: Ratio Ki
Experimental result: 2.7

Smiles notation: COc1cc(CCN2CCN(CCCc3ccccc3)CC2)ccc1OC/C=C/I
Measurement type: Ratio Ki
Experimental result: 1.1

a. COc1cc(CCN2CCN(CCCc3ccccc3)CC2)ccc1OCCc1ccccc1
b. COc1ccc(CCN2CCN(CCCc3ccccc3)CC2)cc1
Q) # argmax over Ratio Ki for candidates a and b Respond using the label that marks the chosen record.
A) b
